- Organism: Rattus norvegicus
- method description: Open TG-GATES - Regimen: Single
- Format: toxicity, organism-based, Sprague-Dawley
- Design: regimen Single, gender Male, age 6 weeks
- recorded conditions: in vivo, po, 100 mg/kg, 24 h, tissue Plasma, route gavage, dose level Low
observed property: IP (mg/dL)
The response must be a number in mg/dL with no trailing unit.

# example entries with known answers
mol_smiles=Cc1nnc2n1-c1ccc(Cl)cc1C(c1ccccc1Cl)=NC2 observed_property=IP unit_abbrev=mg/dL result_value=9.4
mol_smiles=O=C(OC[C@H]1O[C@@H](OC(=O)c2cc(O)c(O)c(OC(=O)c3cc(O)c(O)c(O)c3)c2)[C@H](OC(=O)c2cc(O)c(O)c(OC(=O)c3cc(O)c(O)c(O)c3)c2)[C@@H](OC(=O)c2cc(O)c(O)c(OC(=O)c3cc(O)c(O)c(O)c3)c2)[C@@H]1OC(=O)c1cc(O)c(O)c(OC(=O)c2cc(O)c(O)c(O)c2)c1)c1cc(O)c(O)c(OC(=O)c2cc(O)c(O)c(O)c2)c1 observed_property=IP unit_abbrev=mg/dL result_value=8.7

Reported IP for CN/C(=N/CCSCc1nc[nH]c1C)NC#N was 6.9

Looking up COC(=O)C1=C(C)NC(C)=C(C(=O)OC)C1c1ccccc1[N+](=O)[O-] , I see its IP listed as 7.4

The compound listed as CNC(=C[N+](=O)[O-])NCCSCc1ccc(CN(C)C)o1 shows IP equal to 7.6
